Target: AURKA (Homo sapiens, UniProt O14965)
Sequence (O14965 1-403): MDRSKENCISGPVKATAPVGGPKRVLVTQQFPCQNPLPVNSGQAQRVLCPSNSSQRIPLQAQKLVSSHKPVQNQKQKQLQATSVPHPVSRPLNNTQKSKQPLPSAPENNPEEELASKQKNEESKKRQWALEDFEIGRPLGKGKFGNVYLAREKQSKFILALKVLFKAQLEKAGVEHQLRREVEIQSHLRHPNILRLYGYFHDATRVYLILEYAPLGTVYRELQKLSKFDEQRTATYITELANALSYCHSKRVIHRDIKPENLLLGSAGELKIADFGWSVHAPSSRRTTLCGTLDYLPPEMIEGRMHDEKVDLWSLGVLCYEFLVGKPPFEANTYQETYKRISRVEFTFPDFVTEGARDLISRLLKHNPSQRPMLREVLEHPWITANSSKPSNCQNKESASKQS
Test: MIB dose-dependent kinase inhibition assay
Conditions: read-out: IC50 in the MIB assay, H23 cell lysate, overnight 4°C
pIC50: −log10 of the molar value.
ATTRIBUTE MEASURED: pIC50

Asked: Please indicate pIC50 recorded for C=CC(=O)Nc1ccccc1Nc1nc(Nc2ccc(N3CCN(C)CC3)cc2)ncc1Cl [SM1-71]
Given back: > 8.00

----------
Target: SRC (Homo sapiens)
Sequence (P12931 whole entry): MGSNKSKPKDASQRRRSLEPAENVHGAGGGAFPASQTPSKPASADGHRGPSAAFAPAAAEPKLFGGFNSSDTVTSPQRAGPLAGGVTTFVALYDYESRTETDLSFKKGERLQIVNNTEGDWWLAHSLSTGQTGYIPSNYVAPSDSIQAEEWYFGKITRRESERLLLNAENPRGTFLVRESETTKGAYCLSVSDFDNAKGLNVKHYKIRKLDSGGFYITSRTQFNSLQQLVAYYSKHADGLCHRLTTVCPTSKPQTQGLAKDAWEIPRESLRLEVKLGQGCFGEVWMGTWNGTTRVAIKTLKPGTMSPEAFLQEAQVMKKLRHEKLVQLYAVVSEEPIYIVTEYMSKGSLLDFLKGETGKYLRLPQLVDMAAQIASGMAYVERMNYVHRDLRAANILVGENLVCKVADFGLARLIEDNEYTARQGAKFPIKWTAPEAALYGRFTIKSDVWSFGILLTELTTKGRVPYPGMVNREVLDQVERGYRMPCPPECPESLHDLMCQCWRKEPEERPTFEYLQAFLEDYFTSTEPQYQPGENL
Assay: MIB dose-dependent kinase inhibition assay
Conditions: read-out: IC50 in the MIB assay, H23 cell lysate, overnight 4°C
ATTRIBUTE MEASURED: IC50

Asked: Identify IC50 associated with the compound C=CC(=O)Nc1ccccc1Nc1nc(Nc2ccc(N3CCN(C)CC3)cc2)ncc1Cl
Given back: < 10 nM

----------
Target: YES1 (Homo sapiens, UniProt P07947)
Sequence (P07947 whole entry): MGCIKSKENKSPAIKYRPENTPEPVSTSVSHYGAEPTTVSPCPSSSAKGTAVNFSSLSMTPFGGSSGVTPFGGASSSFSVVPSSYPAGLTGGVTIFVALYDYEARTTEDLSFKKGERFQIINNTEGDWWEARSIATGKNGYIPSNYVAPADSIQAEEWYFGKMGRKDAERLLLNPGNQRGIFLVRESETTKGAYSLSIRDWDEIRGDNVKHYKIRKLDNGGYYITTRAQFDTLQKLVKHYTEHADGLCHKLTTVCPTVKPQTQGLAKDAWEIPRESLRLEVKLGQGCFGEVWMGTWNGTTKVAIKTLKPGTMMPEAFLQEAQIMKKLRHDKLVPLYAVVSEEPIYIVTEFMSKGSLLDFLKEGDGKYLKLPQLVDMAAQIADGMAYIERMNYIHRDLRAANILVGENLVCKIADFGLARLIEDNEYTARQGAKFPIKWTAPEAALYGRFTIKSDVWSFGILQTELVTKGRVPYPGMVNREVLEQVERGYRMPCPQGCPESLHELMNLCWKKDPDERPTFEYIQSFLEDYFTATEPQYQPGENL
Assay: MIB dose-dependent kinase inhibition assay
Details: read-out: IC50 in the MIB assay, H23 cell lysate, overnight 4°C
pIC50: −log10 of the molar value.
ATTRIBUTE MEASURED: pIC50

Asked: Give recorded pIC50. C=CC(=O)Nc1ccccc1Nc1nc(Nc2ccc(N3CCN(C)CC3)cc2)ncc1Cl
Given back: > 8.00

----------
Biological target: GAK (Homo sapiens)
Sequence (O14976 whole entry): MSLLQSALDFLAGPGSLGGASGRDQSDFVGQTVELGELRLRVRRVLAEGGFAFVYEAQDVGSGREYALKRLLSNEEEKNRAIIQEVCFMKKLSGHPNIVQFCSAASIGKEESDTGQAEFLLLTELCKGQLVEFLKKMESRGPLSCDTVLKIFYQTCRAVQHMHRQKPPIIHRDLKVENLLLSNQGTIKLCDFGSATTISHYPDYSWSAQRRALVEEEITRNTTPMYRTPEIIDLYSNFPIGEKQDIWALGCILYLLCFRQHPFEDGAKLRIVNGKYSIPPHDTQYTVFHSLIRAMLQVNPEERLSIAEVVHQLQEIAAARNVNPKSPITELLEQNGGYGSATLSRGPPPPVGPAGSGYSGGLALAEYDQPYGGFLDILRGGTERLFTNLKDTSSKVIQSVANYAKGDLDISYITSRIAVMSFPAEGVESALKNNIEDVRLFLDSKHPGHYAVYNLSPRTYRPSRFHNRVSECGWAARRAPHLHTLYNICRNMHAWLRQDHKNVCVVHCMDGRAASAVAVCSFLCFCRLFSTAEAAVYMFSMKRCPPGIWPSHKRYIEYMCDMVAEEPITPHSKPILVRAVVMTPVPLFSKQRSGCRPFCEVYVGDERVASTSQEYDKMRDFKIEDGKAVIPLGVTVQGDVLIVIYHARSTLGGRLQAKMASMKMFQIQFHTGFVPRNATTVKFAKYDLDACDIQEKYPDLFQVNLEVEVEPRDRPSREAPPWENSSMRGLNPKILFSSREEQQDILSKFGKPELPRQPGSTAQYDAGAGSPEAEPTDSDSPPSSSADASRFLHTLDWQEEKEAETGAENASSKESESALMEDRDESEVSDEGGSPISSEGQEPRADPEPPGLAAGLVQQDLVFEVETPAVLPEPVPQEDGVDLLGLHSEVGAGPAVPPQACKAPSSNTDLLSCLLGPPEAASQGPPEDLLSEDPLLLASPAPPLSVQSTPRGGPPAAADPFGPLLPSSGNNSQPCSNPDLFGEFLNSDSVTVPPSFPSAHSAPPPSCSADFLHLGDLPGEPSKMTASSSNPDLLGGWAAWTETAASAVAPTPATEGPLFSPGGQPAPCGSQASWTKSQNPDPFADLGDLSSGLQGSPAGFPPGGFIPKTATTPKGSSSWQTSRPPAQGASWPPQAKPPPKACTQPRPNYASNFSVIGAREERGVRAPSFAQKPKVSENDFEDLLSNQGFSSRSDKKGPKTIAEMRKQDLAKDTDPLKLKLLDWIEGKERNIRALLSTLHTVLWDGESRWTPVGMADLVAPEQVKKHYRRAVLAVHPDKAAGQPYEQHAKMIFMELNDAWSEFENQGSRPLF
Assay: MIB dose-dependent kinase inhibition assay
Conditions: read-out: IC50 in the MIB assay, H23 cell lysate, overnight 4°C
pIC50: −log10 of the molar value.
ATTRIBUTE MEASURED: pIC50

Asked: Consider the molecule C=CC(=O)Nc1ccccc1Nc1nc(Nc2ccc(N3CCN(C)CC3)cc2)ncc1Cl . State its measured pIC50.
Given back: > 8.00

----------
Biological target: LIMK1 (Homo sapiens, UniProt P53667)
Sequence (P53667 whole entry): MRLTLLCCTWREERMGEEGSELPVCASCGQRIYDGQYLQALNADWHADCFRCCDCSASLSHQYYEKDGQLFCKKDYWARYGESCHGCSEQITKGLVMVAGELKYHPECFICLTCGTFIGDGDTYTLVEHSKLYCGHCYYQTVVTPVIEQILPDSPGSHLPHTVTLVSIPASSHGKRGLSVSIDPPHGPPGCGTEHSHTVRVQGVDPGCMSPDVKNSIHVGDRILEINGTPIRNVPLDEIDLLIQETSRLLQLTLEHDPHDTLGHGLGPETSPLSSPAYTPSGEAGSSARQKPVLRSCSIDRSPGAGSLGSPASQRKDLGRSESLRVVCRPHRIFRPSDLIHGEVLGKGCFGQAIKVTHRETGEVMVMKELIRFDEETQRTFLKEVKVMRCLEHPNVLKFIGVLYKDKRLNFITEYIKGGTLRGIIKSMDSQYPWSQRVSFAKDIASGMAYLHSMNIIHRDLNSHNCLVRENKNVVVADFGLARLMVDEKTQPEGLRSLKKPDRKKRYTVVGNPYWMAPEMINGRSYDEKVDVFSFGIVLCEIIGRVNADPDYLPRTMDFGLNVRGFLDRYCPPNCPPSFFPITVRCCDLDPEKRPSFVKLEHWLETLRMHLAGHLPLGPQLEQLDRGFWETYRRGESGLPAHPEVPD
Assay: MIB dose-dependent kinase inhibition assay
Conditions: read-out: IC50 in the MIB assay, H23 cell lysate, overnight 4°C
pIC50: −log10 of the molar value.
ATTRIBUTE MEASURED: pIC50

Asked: Complete the entry with pIC50 for C=CC(=O)Nc1ccccc1Nc1nc(Nc2ccc(N3CCN(C)CC3)cc2)ncc1Cl [SM1-71]
Given back: > 8.00

----------
Molecular target: AAK1 (Homo sapiens, UniProt Q2M2I8)
Sequence (Q2M2I8 whole entry): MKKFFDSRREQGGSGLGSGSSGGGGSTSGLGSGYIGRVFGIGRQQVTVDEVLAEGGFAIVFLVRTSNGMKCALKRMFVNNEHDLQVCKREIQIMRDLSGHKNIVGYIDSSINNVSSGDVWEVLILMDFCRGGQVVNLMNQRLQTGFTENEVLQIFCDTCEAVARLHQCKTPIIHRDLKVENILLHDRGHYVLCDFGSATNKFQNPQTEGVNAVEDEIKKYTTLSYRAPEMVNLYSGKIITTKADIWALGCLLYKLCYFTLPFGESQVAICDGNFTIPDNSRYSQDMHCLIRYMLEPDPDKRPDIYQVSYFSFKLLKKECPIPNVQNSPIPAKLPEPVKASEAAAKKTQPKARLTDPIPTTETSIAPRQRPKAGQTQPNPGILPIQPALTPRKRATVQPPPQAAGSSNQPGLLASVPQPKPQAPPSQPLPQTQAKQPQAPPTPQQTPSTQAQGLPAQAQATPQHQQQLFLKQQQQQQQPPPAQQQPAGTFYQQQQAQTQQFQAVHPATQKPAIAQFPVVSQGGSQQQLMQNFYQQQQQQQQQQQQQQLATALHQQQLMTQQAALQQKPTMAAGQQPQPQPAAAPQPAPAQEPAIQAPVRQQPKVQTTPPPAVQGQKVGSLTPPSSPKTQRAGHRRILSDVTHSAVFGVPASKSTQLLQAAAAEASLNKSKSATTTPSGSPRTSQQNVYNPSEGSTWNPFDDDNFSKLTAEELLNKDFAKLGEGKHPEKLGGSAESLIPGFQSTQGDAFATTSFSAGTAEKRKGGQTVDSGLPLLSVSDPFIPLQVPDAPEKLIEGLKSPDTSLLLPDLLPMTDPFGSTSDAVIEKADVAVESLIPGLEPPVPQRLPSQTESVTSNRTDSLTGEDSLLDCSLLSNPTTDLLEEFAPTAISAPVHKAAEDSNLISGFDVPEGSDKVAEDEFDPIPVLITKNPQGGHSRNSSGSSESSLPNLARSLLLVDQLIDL
Assay: MIB dose-dependent kinase inhibition assay
Settings: read-out: IC50 in the MIB assay, H23 cell lysate, overnight 4°C
ATTRIBUTE MEASURED: IC50

Asked: Report IC50 on AAK1 (Homo sapiens, UniProt Q2M2I8) for this entry: C=CC(=O)Nc1ccccc1Nc1nc(Nc2ccc(N3CCN(C)CC3)cc2)ncc1Cl
Given back: < 10 nM

----------
System: H23-KRAS^G12C non-small cell lung cancer (NSCLC) cell line
Assay: proliferation assay
Assay type: cell-based, Human
Details: proliferation assays, H23-KRAS^G12C cells (Fig. S2A)
ATTRIBUTE MEASURED: IC50 (nM)
Numbers only here, please. The scale is nM.

Asked: Return value of IC50 for input C=CC(=O)Nc1ccccc1Nc1nc(Nc2ccc(N3CCN(C)CC3)cc2)ncc1Cl , no commentary.
Given back: 400
